assay: in vitro; type: cell-based, bovine; settings: bovine
Square brackets hold non-standard residues; d marks the D form. Peptide text beside a SMILES is read from it. N(1-naphthylmethyl)Gly = O=C(O)CNCc1cccc2ccccc12; Nphe = O=C(O)CNCc1ccccc1; NBuGly = CCCCNCC(=O)O
Endpoint Label: hemolysis at 1 h, 150 µM (%)
Numbers only, in %.

Answered examples (2):
Molecule: CC(C)C[C@H](NC(=O)[C@H](CCCCN)NC(=O)[C@H](CCCCN)NC(=O)[C@@H](N)CCCCN)C(=O)N[C@@H](Cc1ccc2ccccc2c1)C(=O)N[C@@H](Cc1ccc(O)cc1)C(=O)N[C@@H](Cc1ccc2ccccc2c1)C(N)=O [Compound 17] (HELM PEPTIDE1{K.K.K.L.[O=C([C@H](Cc1ccc2ccccc2c1)N[*:1])[*:2]].Y.[O=C([C@H](Cc1ccc2ccccc2c1)N[*:1])[*:2]].[am]}$$$$V2.0)
Unit Text: %
hemolysis at 1 h, 150 µM: 19.9
--
Molecule: CC(C)C[C@@H](NC(=O)[C@H](CCCCN)NC(=O)[C@H](CCCCN)NC(=O)[C@@H](N)CCCCN)C(=O)N[C@H](Cc1cccc2ccccc12)C(=O)N[C@H](Cc1ccccc1)C(=O)N[C@H](Cc1cccc2ccccc12)C(N)=O [Compound 11] (HELM PEPTIDE1{K.K.K.[dL].[O=C([C@@H](Cc1cccc2ccccc12)N[*:1])[*:2]].[dF].[O=C([C@@H](Cc1cccc2ccccc12)N[*:1])[*:2]].[am]}$$$$V2.0)
Unit Text: %
hemolysis at 1 h, 150 µM: 17.4

*Q* Quick check: hemolysis at 1 h, 150 µM of CCCCN(CC(=O)N[C@@H](CCCCN)C(=O)N(CC(=O)N(CC(=O)N(CC(N)=O)Cc1cccc2ccccc12)Cc1ccccc1)Cc1cccc2ccccc12)C(=O)[C@H](CCCCN)NC(=O)[C@@H](N)CCCCN [Compound 14] (H-KK[NBuGly]K[N(1-naphthylmethyl)Gly][Nphe][N(1-naphthylmethyl)Gly]-NH2) ?
*A* 13.9
